Target: EGFR-L858R/C797S (H1975-clone #8 cells) (Homo sapiens, UniProt P00533, C797S/L858R)
Construct: expressed in transfected cells; host or cells: H1975 (endogenous EGFR knocked out, clone #8)
Sequence (P00533 25-1210 C797S/L858R): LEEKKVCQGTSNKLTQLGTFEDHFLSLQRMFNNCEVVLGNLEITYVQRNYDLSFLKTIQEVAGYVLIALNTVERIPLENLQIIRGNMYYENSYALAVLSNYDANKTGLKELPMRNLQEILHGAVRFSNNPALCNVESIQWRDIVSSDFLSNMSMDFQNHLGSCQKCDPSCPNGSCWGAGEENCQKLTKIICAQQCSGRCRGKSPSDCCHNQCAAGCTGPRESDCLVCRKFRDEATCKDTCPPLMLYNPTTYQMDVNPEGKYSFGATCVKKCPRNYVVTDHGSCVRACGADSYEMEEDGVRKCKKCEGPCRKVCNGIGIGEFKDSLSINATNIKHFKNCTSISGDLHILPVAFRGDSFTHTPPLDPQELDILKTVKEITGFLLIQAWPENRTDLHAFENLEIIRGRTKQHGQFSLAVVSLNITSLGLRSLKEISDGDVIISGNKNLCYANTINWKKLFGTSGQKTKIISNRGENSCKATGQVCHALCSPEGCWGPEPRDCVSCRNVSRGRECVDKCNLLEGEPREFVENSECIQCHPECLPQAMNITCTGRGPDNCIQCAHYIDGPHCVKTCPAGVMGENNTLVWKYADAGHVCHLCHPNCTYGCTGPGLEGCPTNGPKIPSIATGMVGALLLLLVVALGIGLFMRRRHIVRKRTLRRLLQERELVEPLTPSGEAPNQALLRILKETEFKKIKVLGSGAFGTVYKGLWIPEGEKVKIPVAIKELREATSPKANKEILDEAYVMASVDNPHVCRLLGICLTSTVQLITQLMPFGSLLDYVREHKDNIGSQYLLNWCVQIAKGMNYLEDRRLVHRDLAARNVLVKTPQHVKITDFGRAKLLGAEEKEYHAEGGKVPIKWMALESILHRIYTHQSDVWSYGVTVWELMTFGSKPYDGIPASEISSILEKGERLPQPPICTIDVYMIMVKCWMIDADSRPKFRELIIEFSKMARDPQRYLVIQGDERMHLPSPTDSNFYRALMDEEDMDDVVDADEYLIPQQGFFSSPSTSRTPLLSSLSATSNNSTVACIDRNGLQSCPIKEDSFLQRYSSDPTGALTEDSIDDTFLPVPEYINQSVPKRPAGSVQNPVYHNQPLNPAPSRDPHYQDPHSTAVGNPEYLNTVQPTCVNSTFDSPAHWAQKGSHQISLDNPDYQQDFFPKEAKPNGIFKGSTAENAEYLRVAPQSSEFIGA
Test: Cell degradation of EGFR, HTRF assay, H1975-clone#8 (L858R/C797S) cells
Assay type: cell-based
Conditions: 16 h treatment, maximum percentage of degradation
Description: The EGFR over-expressed cells then underwent knockout, in which the EGFR targeting sgRNA was designed to only target the endogenous EGFR copies and preserve the exogenous EGFR copies. Followed by the knockout, the edited H1975 cells were seeded in 96 well plates at the concentration of […], cultured for about 2 weeks to allow single clones formation. […] High control=Cell group with added DMSO and without compound, indicating microplate readings without EGFR degradation; […]
endpointLabel: Dmax (%)

As a guide, the following entries are already answered.
compound="Cc1cc2cc(n1)-c1cnn(C)c1OC[C@H]1CCC(C1)CN1/C(=N/C2=O)Nc2ccc(N3CCN([C@@H]4CCN(c5ccc(OC6CCC(=O)NC6=O)cc5F)C[C@@H]4F)CC3)cc21 (stereo partly shown) [Example 115]" readoutnumber=81.1
compound="COC[C@@H]1CN(c2ccc3c(c2)N2CC4CC[C@H](COc5c(cnn5C)-c5cc(cc(C)n5)C(=O)/N=C/2N3)C4)CCN1C1CN(C2CCN(c3cc(F)c([C@H]4CCC(=O)NC4=O)c(F)c3)CC2)C1 [Example 108]" readoutnumber=77
compound="Cc1cc2cc(n1)-c1c(C)nn(C)c1OC[C@H]1CC[C@H](C1)CN1/C(=N/C2=O)Nc2ccc(N3[C@@H](C)CN(C4CCN(c5cc(F)c([C@H]6CCC(=O)NC6=O)c(F)c5)CC4)C[C@@H]3C)cc21 [Example 198]" readoutnumber=100
compound="Cc1cc2cc(n1)-c1c(C)nn(C)c1OC[C@H]1CC[C@H](C1)CN1/C(=N/C2=O)Nc2ccc(N3CCN([C@H]4CCN(c5cc(F)c([C@H]6CCC(=O)NC6=O)c(F)c5)C4)CC3)cc21 (single isomer, unassigned) [Example 186]" readoutnumber=80.4
compound="Cc1cc2cc(n1)-c1c(C)nn(C)c1OC[C@H]1CC[C@H](C1)CN1/C(=N/C2=O)Nc2ccc(N3CCN([C@H]4CCN(c5cnc(C6CCC(=O)NC6=O)cc5C)CC4(F)F)CC3)cc21 (stereo partly shown) [Example 101]" readoutnumber=90.2
compound="Cc1cc2cc(n1)-c1cnn(CCO)c1OC[C@H]1CCC(C1)CN1/C(=N/C2=O)Nc2ccc(N3CCC(N4CCC(Nc5cc(F)c([C@H]6CCC(=O)NC6=O)c(F)c5)CC4)CC3)cc21 [Example 129]" readoutnumber=69.3
compound="Cc1cc2cc(n1)-c1c(C)nn(C)c1OC[C@H]1CCC(C1)CN1/C(=N/C2=O)Nc2ccc(N3CCN(CC4CCN(c5cc(F)c([C@H]6CCC(=O)NC6=O)c(F)c5)CC4)[C@H](C)C3)cc21 [Example 134]" readoutnumber=79.9
compound="COC[C@@H]1CN(c2ccc3c(c2)N2CC4CC[C@H](COc5c(cnn5C)-c5cc(cc(C)n5)C(=O)/N=C/2N3)C4)CCN1C1CCN(c2ccc(NC3CCC(=O)NC3=O)cc2C)CC1 (stereo partly shown) [Example 118]" readoutnumber=73.7
compound="Cc1cc2cc(n1)-c1cnn(C)c1OC[C@H]1CCC(C1)CN1/C(=N/C2=O)Nc2ccc(N3CCN(C4CCN(c5ccc(NC6CCC(=O)NC6=O)cc5C)CC4)CC3)cc21 (stereo partly shown) [Example 123]" readoutnumber=81.6
compound="Cc1cc2cc(n1)-c1cnn(C)c1OC[C@H]1CCC(C1)CN1/C(=N/C2=O)Nc2ccc(N3CCN(C4(CO)CCN(c5ccc(C6CCC(=O)NC6=O)nc5C)CC4)CC3)cc21 (stereo partly shown) [Example 114]" readoutnumber=82

P. Cc1cc2cc(n1)-c1cnn(C)c1OC[C@H]1CCC(C1)CN1/C(=N/C2=O)Nc2ccc(N3CCN(C4CCN(c5c(F)cc(OC6CCC(=O)NC6=O)cc5F)CC4)CC3)cc21 (stereo partly shown) [Example 111]
Q. Cc1cc2cc(n1)-c1cnn(C)c1OC[C@H]1CC[C@H](C1)CN1/C(=N/C2=O)Nc2ccc(N3CCN(C4CCN(c5ccc(OC6CCC(=O)NC6=O)cc5)CC4)CC3)cc21 (stereo partly shown) [Example 57]
Look at P and Q . Which one has the lower recorded Dmax number? Answer by stating the label of the chosen item.
Q

Measured values drawn from patent US20240425523A1 for this set.
